System: CYP3A4
Details: human, 24 h
Listed here: items and their measured % of Positive control (10 μM Rifampicin).
API: value field is a number in %; no unit string.

Solved cases below.
compound: CCOC(=O)C1=C(CN2[C@@H]3COC[C@H]2C[C@H](CC(=O)O)C3)NC(c2nccs2)=N[C@H]1c1ccc(F)c(F)c1Cl
measure-name: % of Positive control (10 μM Rifampicin)
reported-value: 21
//
compound: CCOC(=O)C1=C(CN2C3COCC2CC(CC(=O)O)C3)NC(c2nccs2)=N[C@H]1c1ccc(F)cc1Cl (stereo partly drawn)
measure-name: % of Positive control (10 μM Rifampicin)
reported-value: 36

Read the next record carefully.
Entry COC(=O)C1=C(CN2C3COCC2CC(NC(C)=O)C3)NC(c2nccs2)=N[C@H]1c1ccc(F)cc1Cl (stereo partly drawn) , % of Positive control (10 μM Rifampicin) reported as 20

###

Test system: HepDE19 cells
Assay: Cytotoxicity (CCK-8 cell viability) and selectivity index
Format: cell-based, human
Conditions: CC50 value/EC50 value
measure-name: Selectivity index (CC50/EC50)

Known results for molecules:
molecule: COC(=O)C1=C(CN2[C@@H]3CC[C@@]2(C(=O)O)COC3)NC(c2nccs2)=N[C@H]1c1ccc(F)cc1Cl
reported-value: >7634
--
molecule: CCOC(=O)C1=C(CN2[C@@H]3COC[C@H]2C[C@H](CC(=O)O)C3)NC(c2nccs2)=N[C@H]1c1ccc(F)cc1Br
reported-value: >25000

Briefly, Selectivity index (CC50/EC50) measured for COC(=O)C1=C(CN2C3COCC2CC(CC(=O)O)C3)NC(c2nccs2)=N[C@H]1c1ccc(F)c(F)c1Cl (some centres unmarked) : >15385

According to the records, this molecule COC(=O)CC1CC2COCC(C1)N2CC1=C(C(=O)OC)[C@H](c2ccc(F)cc2Cl)N=C(c2nccs2)N1 (some centres unmarked) displays Selectivity index (CC50/EC50) of >6897

Lookup result for `COC(=O)C1=C(CN2[C@H]3COC[C@@H]2[C@H](CC(=O)O)C3)NC(c2nccs2)=N[C@H]1c1ccc(F)cc1Br` ; measured Selectivity index (CC50/EC50): >6024

###

Tested on: HepDE19 cells
Assay: Cytotoxicity (CCK-8 cell viability) and selectivity index
Type: cell-based, human
Details: CC50 value/EC50 value
Catalogue of compounds with associated Selectivity index (CC50/EC50)

Illustrative cases are given below, each with its answer.
compound: COC(=O)C1=C(CN2C3CC(F)(F)C2C[C@@](O)(CC(=O)O)C3)NC(c2nccs2)=N[C@H]1c1ccc(F)cc1Cl (single isomer, unassigned) [Example 116]
reported-value: >13699

compound: COC(=O)C1=C(CN2[C@@H]3COC[C@H]2C[C@H](CC(=O)O)C3)NC(c2nccs2)=N[C@H]1c1cccc(F)c1Br [Example 74]
reported-value: >9174

From here, focus on the item given below.
Let me check: COC(=O)C1=C(CN2[C@@H]3C[C@@H](CC(=O)O)C[C@H]2C(F)(F)C3)NC(c2nccs2)=N[C@H]1c1ccc(F)cc1Cl [Example 109] , system HepDE19 cells, measured Selectivity index (CC50/EC50) is >58824

###

Reported CLh values are given for each entry in this list.
Assay: Human microsomal clearance assay
Format: in vitro ADME
Conditions: human, 1 μM, pH 7.4
Procedure: Microsomes were preincubated with test compound for 10 minutes at 37° C. in 100 mM phosphate buffer with pH 7.4. The reactions were initiated by adding NADPH regenerating system to give a final incubation volume of 400 μL. […] After precipitation and centrifugation, test compound concentrations in the samples were determined by LC-MS/MS. Controls of no NADPH regenerating system at zero and 30 minutes were also prepared and analyzed.
Kindly provide the numeric value in mL/min/kg only, without the unit symbol.

molecule: COC(=O)C1=C(CN2[C@@H]3C[C@H](CC(=O)O)C[C@H]2C(F)(F)C3)NC(c2nccs2)=N[C@H]1c1ccc(Cl)c(F)c1
reading-unit: mL/min/kg
CLh: 1.8

molecule: CCOC(=O)C1=C(CN2[C@@H]3COC[C@H]2C[C@H](CC(=O)O)C3)NC(c2nccs2)=N[C@H]1c1ccccc1Br
reading-unit: mL/min/kg
CLh: 1.3

molecule: COC(=O)C1=C(CN2[C@@H]3COC[C@H]2C[C@H](NS(N)(=O)=O)C3)NC(c2nccs2)=N[C@H]1c1ccc(F)cc1Cl
reading-unit: mL/min/kg
CLh: 4.1

// CLh lookup, molecule = CCOC(=O)C1=C(CN2C3COCC2C(F)(F)[C@@H](CC(=O)O)C3)NC(c2nccs2)=N[C@H]1c1cccc(F)c1Cl (stereo partly drawn) , result: 2.0

The molecule `COC(=O)C1=C(CN2[C@@H]3C[C@@H](CC(=O)O)C[C@H]2C(F)(F)C3)NC(c2nccs2)=N[C@H]1c1ccc(F)cc1Cl` showed CLh equal to 7.2

// `COC(=O)C1=C(CN2[C@@H]3COC[C@H]2[C@H](F)[C@@H](CC(=O)O)C3)NC(c2nccs2)=N[C@H]1c1cccc(F)c1Cl` : CLh value = 0

For reference, reported CLh for COC(=O)C1=C(CN2[C@@H]3COC[C@H]2CC(OCC(=O)O)C3)NC(c2nccs2)=N[C@H]1c1ccc(F)cc1Cl (stereo partly drawn) stands at 4.0

`CCOC(=O)C1=C(CN2[C@@H]3COC[C@H]2C[C@H](CC(=O)O)C3)NC(c2nccs2)=N[C@H]1c1ccc(F)c(F)c1C` yielded CLh of 1.9

Item: COC(=O)C1=C(CN2C3CC(F)(F)C2C[C@@](O)(CC(=O)O)C3)NC(c2nccs2)=N[C@H]1c1cccc(F)c1Cl (single isomer, unassigned) | CLh: 0

Measured CLh, `COC(=O)C1=C(CN2[C@@H]3CC[C@@]2(C(=O)O)CC3(F)F)NC(c2nccs2)=N[C@H]1c1ccc(F)cc1Cl` : 3.4

response.value for `COC(=O)C1=C(CN2[C@H]3C[C@@H](CC(=O)O)C[C@@H]2C(F)(F)C3)NC(c2nccs2)=N[C@H]1c1cccc(F)c1Cl` (field: CLh) = 0

Values were extracted from patent US9266904B2.
